FYI, the data here is from patent US20190352423A1.

Molecular target: CD63 on cells (human) (UniProt P08962)
Sequence (P08962 2-238): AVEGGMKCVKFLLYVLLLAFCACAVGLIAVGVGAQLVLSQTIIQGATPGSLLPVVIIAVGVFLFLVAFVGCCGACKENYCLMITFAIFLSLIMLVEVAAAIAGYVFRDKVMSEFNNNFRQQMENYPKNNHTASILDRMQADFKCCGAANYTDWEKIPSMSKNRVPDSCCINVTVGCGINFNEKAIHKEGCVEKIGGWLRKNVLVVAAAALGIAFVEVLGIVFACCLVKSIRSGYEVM
Experiment: cell-based or functional assay
List of log10 of IC50 of cytotoxicity, HCC1954 cells (CellTiter-GLO, 4 days) values.
property.measured: log10 of IC50 of cytotoxicity, HCC1954 cells (CellTiter-GLO, 4 days) (log10 of the value in µg/mL)

| binder | recorded.measurement |
| --- | --- |
| bsHER2xCD63-Duo3 (bispecific antibody, part only; not given: HER2 arm, IgG1, V domains shown, part only) VH: EVQLQQSGPELVKPGASVKMSCKASGYTFTSYVMHWVRQTPGQGLEWIGYITPYNDGTKYNEKFKGKATLTSDKSSSTAYMELSSLTSEDSAVYYCVGGDNYYYAMDYWGQGTSVTVSAA VL: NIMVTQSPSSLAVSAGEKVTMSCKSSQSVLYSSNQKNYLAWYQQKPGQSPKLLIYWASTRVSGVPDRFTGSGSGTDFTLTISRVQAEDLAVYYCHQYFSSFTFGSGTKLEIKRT | -2.05 |
| bsHER2xCD63-Duo3 with CD63 variant G76H (bispecific antibody, part only; not given: HER2 arm (IgG1-153) VH and VL, V domains shown, part only) VH: EVQLQQSGPELVKPGASVKMSCKASGYTFTSYVMHWVRQTPGQGLEWIGYITPYNDHTKYNEKFKGKATLTSDKSSSTAYMELSSLTSEDSAVYYCVGGDNYYYAMDYWGQGTSVTVSAA VL: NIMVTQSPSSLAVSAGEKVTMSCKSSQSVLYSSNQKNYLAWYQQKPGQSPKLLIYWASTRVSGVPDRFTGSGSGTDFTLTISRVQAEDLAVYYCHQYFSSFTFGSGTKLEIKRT | -0.98 |
| bsHER2xCD63-Duo3 with CD63 variant Y121H (bispecific antibody, part only; not given: HER2 arm, V domains shown, part only) VH: EVQLQQSGPELVKPGASVKMSCKASGYTFTSYVMHWVRQTPGQGLEWIGYITPYNDGTKYNEKFKGKATLTSDKSSSTAYMELSSLTSEDSAVYYCVGGDNHYYAMDYWGQGTSVTVSAA VL: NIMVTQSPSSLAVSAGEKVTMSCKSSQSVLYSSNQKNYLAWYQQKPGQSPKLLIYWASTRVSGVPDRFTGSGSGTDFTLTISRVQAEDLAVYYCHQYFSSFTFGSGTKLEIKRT | -1.14 |
| bsHER2xCD63-Duo3 with CD63 variant LN54H (bispecific antibody, part only; not given: HER2 arm (IgG1-153) VH and VL, V domains shown, part only) VH: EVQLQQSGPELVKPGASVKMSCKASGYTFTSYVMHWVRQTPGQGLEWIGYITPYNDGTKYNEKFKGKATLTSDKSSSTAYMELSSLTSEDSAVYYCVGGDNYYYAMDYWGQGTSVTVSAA VL: NIMVTQSPSSLAVSAGEKVTMSCKSSQSVLYSSHQKNYLAWYQQKPGQSPKLLIYWASTRVSGVPDRFTGSGSGTDFTLTISRVQAEDLAVYYCHQYFSSFTFGSGTKLEIKRT | -1.89 |
| bsHER2xCD63-Duo3 with CD63 variant T71H (bispecific antibody, part only; not given: HER2 arm (IgG1-153) VH and VL, V domains shown, part only) VH: EVQLQQSGPELVKPGASVKMSCKASGYTFTSYVMHWVRQTPGQGLEWIGYIHPYNDGTKYNEKFKGKATLTSDKSSSTAYMELSSLTSEDSAVYYCVGGDNYYYAMDYWGQGTSVTVSAA VL: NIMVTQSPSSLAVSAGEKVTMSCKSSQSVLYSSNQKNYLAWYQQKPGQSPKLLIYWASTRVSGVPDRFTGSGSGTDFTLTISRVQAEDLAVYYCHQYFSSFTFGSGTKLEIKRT | -1.52 |
| bsCD63xb12-Duo3 with CD63 variant T71H (bispecific antibody, part only; not given: b12 control arm, V domains shown, part only) VH: EVQLQQSGPELVKPGASVKMSCKASGYTFTSYVMHWVRQTPGQGLEWIGYIHPYNDGTKYNEKFKGKATLTSDKSSSTAYMELSSLTSEDSAVYYCVGGDNYYYAMDYWGQGTSVTVSAA VL: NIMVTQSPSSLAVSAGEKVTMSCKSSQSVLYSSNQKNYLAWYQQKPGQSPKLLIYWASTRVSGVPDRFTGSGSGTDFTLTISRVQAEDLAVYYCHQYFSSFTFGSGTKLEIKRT | 0.69 |
| bsCD63xb12-Duo3 with CD63 variant Y46 (bispecific antibody, part only; not given: b12 control arm VH and VL, V domains shown, part only) VH: EVQLQQSGPELVKPGASVKMSCKASGHTFTSYVMHWVRQTPGQGLEWIGYITPYNDGTKYNEKFKGKATLTSDKSSSTAYMELSSLTSEDSAVYYCVGGDNYYYAMDYWGQGTSVTVSAA VL: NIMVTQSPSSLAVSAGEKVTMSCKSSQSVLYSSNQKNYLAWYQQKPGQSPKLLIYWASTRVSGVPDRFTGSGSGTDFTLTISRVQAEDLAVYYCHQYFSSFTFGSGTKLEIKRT | -0.05 |
| bsCD63xb12-Duo3 with CD63 variant Y127 (bispecific antibody, part only; not given: b12 control arm VH and VL, V domains shown, part only) VH: EVQLQQSGPELVKPGASVKMSCKASGYTFTSYVMHWVRQTPGQGLEWIGYITPYNDGTKYNEKFKGKATLTSDKSSSTAYMELSSLTSEDSAVYYCVGGDNYYYAMDHWGQGTSVTVSAA VL: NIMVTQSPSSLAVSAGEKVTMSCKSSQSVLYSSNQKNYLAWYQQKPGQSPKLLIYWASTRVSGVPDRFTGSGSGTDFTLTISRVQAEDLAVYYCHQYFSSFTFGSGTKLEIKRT | -0.18 |
| bsHER2xCD63-Duo3 with CD63 variant LV49H (bispecific antibody, part only; not given: HER2 arm (IgG1-153) VH and VL, V domains shown, part only) VH: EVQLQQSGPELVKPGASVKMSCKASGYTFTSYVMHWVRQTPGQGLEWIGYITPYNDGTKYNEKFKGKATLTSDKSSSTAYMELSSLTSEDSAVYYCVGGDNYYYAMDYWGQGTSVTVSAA VL: NIMVTQSPSSLAVSAGEKVTMSCKSSQSHLYSSNQKNYLAWYQQKPGQSPKLLIYWASTRVSGVPDRFTGSGSGTDFTLTISRVQAEDLAVYYCHQYFSSFTFGSGTKLEIKRT | -1.19 |
| bsCD63xb12-Duo3 (bispecific antibody, part only; not given: b12 control arm VH and VL, IgG1, V domains shown, part only) VH: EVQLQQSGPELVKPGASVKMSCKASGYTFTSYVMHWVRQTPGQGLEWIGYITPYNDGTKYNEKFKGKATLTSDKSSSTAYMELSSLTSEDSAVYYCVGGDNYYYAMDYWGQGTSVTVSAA VL: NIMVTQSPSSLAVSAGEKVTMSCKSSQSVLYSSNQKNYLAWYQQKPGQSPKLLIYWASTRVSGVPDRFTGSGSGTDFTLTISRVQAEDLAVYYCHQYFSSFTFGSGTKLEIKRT | -0.37 |
